assay_notes: Human liver microsome (HLM) metabolic stability assay
Assay type: in vitro ADME
experimental_parameters: human liver microsomes
measured_property: Metabolic stability (Qh %), % hepatic blood flow

Example entries begin here.
{"columns": ["compound", "result"],
 "data": [
  ["CCO[C@@H]1CN(c2cccc(-c3cccc(C)c3OCc3cc4c(c(OC)c3)CN(C3CCOCC3)CC4)n2)CC[C@@H]1C(=O)O [Compound 230]", "83%"],
  ["Cc1cccc(-c2csc(N3C[C@@H]4C[C@]4(C(=O)O)C3)n2)c1OCc1ccc2c(c1C)CCN(C1COC1)CC2 [Compound 143]", "<24%"],
  ["COc1cc(COc2c(C)cccc2-c2cccc(N3C[C@@H]4C[C@]4(C(=O)O)C3)n2)cc2c1CN(C1CCOCC1)CC2 [Compound 27]", "<24%"],
  ["Cc1ccc(OCc2ccc3c(c2C)CCN(CC2COCCO2)C3)c(-c2csc(N3CC[C@@]4(C(=O)O)C[C@H]4C3)n2)c1 (stereo partly shown) [Compound 117]", "27%"],
  ["Cc1cc(COc2c(C)cccc2-c2cccc(N3CC[C@@]4(C(=O)O)C[C@H]4C3)n2)cc2c1CN(C1CCOCC1)CC2 [Compound 15]", "51%"]
]}

Specify reported Metabolic stability (Qh %), % hepatic blood flow for the compound shown: Cc1c(COc2ccccc2-c2cccc(N3CC[C@@]4(C(=O)O)C[C@H]4C3)n2)ccc2c1CCN(C1CCOCC1)C2 [Compound 6]
54%

Identify measured Metabolic stability (Qh %), % hepatic blood flow corresponding to CCO[C@H]1CN(c2nc(-c3cccc(Cl)c3OCc3cc4c(c(OC)c3)CN(C3CCOCC3)CC4)cs2)CC[C@H]1C(=O)O [Compound 261]
29%

Provide one value: measured Metabolic stability (Qh %), % hepatic blood flow of CCOC[C@H]1N(c2cccc(-c3cccc(C)c3OCc3cc(C)c4c(c3)CCN(C3CCOCC3)C4)n2)C[C@@H]2C[C@@]21C(=O)O [Compound 315]
<24%

Look up and report measured Metabolic stability (Qh %), % hepatic blood flow for this entry: CO[C@H]1CN(c2nc(-c3cc(C)ccc3OCc3ccc4c(c3C)CCN(C3CCOCC3)C4=O)cs2)CC[C@H]1C(=O)O [Compound 203]
<24%

Hello, please tell me recorded Metabolic stability (Qh %), % hepatic blood flow for this one: Cc1ccc(OCc2ccc3c(c2C)CCN(C2COC2)C3)c(-c2csc(N3CC[C@@]4(C(=O)O)C[C@H]4C3)n2)c1 [Compound 116]
<24%

Retrieve Metabolic stability (Qh %), % hepatic blood flow measured for COc1cc(COc2c(Cl)cccc2-c2csc(N3CC[C@H](C(=O)O)[C@H](OC)C3)n2)cc2c1CN(C1CCOCC1)CC2 [Compound 265] and print it.
<24%

Annotate the compound COc1cc(COc2c(C)cccc2-c2csc(N3CC[C@@H](C(=O)O)[C@@H](OC)C3)n2)c(F)c2c1CN(C1CCOCC1)CC2 [Compound 252] with its measured Metabolic stability (Qh %), % hepatic blood flow.
<24%

Look up and state reported Metabolic stability (Qh %), % hepatic blood flow for CO[C@@H]1CN(c2cccc(-c3cccc(C)c3OCc3ccc4c(c3C)CCN(C3CCOC3)CC4)n2)CC[C@@H]1C(=O)O (stereo partly shown) [Compound 283]
<24%
